src = patent US10052306B2

target: NR1/NR2B (Homo sapiens (Human), UniProt Q05586+Q13224); test: Cell assay: FDSS Ca2+ influx inhibition in HEK293 cells expressing NR1/NR2B; details: NR2B NAM IC50, HEK293 cells expressing NR1/NR2B, Ca2+ influx
// values below are reported IC50
Numbers only here, please. The scale is nM.

COMPOUND	UNIT ABBREV	IC50
Cc1cc(F)ccc1C[C@]1(O)C[C@H]2CN(CC(O)c3ccc(O)cn3)C[C@H]2C1 (mixture of isomers) [Example 243]	nM	75.7

Turning to the following compound.
Request: Suppose we examine the compound CO[C@@]1(Cc2ccccc2)C[C@H]2CN(CC(O)c3ccc(O)cn3)C[C@H]2C1 (mixture of isomers) [Example 177] ; what IC50 value has been reported?
Result: 31.6

---

biological target: NR1/NR2B (Homo sapiens (Human)); assay: Cell assay: FDSS Ca2+ influx inhibition in HEK293 cells expressing NR1/NR2B; conditions: read-out: NR2B NAM IC50; HEK293 cells expressing NR1/NR2B, Ca2+ influx
MEASUREMENT LABEL: IC50 (µM)
Report only the number, with the unit µM understood.

Observe how each entry below is paired with its result.
MOLECULE	TGT	IC50 (µM)
O=C(CN1C[C@@H]2C[C@@](O)(c3ccccc3)C[C@@H]2C1)c1cccc(F)c1	NR1/NR2B (Homo sapiens (Human))	10
O=C(CN1CC2CC(Cc3ccccc3)CC2C1)c1ccc(O)cn1 (stereo not shown)	NR1/NR2B (Homo sapiens (Human))	0.792
CC(C)(C)OC(=O)Nc1ccc(C(=O)CN2C[C@@H]3C[C@@](O)(Cc4ccccc4)C[C@@H]3C2)cn1	NR1/NR2B (Homo sapiens (Human))	10

Could you now look at the following molecule, please?
Request: Lab request: please report IC50 under test system NR1/NR2B (Homo sapiens (Human)) for O=C(CN1C[C@@H]2C[C@@](O)(Cc3ccccc3)C[C@@H]2C1)c1cccc(-c2ccc(F)cc2)c1
Result: 10

---

We begin with a simple list: items and their reported IC50.
biological target: NR1/NR2B (Homo sapiens (Human)); test: Cell assay: FDSS Ca2+ influx inhibition in HEK293 cells expressing NR1/NR2B; conditions: read-out: NR2B NAM IC50; HEK293 cells expressing NR1/NR2B, Ca2+ influx
Just the number in µM, nothing appended.

Below, 3 compounds whose answers are already recorded.
COMPOUND	OBSERVED MEASUREMENT
Cc1cc(C)cc(C[C@]2(O)C[C@H]3CN(CC(=O)c4ccc(O)cc4)C[C@H]3C2)c1 [Example 212]	10
Cc1ccc(NC(=O)N2C[C@@H]3C[C@@](O)(c4ccc(F)cc4)C[C@@H]3C2)cc1 [Example 36]	10
O=C(CN1C[C@@H]2C[C@@](O)(Cc3ccccc3)C[C@@H]2C1)c1ccc(-c2cccc(F)c2)cc1 [Example 261]	10

Proceeding to the next compound to report its IC50.
Request: Quick check: IC50 of O=C(CN1C[C@@H]2C[C@@](O)(Cc3ccc(F)cc3)C[C@@H]2C1)c1ccc(O)c(F)c1 [Example 169] ?
Result: 0.117

---

biological target: NR1/NR2B (Homo sapiens (Human)); experiment: Cell assay: FDSS Ca2+ influx inhibition in HEK293 cells expressing NR1/NR2B; conditions: read-out: Binned Activity; HEK293 cells expressing NR1/NR2B, Ca2+ influx; binned NR2B NAM IC50
pIC50: −log10 of the molar value.
MEASUREMENT LABEL: pIC50

Solved cases (4 shown):
MOLECULE	OBSERVED MEASUREMENT
O=C(CN1CC2CC(Cc3ccccc3)CC2C1)c1ccc(O)cn1 (centres unmarked)	6.00 to 7.00
O=C(CN1CC2CC(CCc3ccccc3)CC2C1)c1ccc(O)cc1 (centres unmarked)	6.00 to 7.00
O=C(CN1CC2CC(O)(c3ccccc3)CC2C1)c1ccccc1 (centres unmarked)	< 5.00
Oc1ccc([C@H](O)CN2C[C@@H]3C[C@@](O)(Cc4ccccc4)C[C@@H]3C2)cc1	> 7.00

Note: attention shifts to another entry.
Request: Notebook entry, NR1/NR2B (Homo sapiens (Human)) assay: pIC50 of OC(CN1C[C@@H]2CC(O)(Cc3ccccc3)C[C@@H]2C1)c1ccc(F)cc1 (mixture of isomers) = ?
Result: < 5.00

---

molecular target: NR1/NR2B (Homo sapiens (Human), UniProt Q05586+Q13224); experiment: Cell assay: FDSS Ca2+ influx inhibition in HEK293 cells expressing NR1/NR2B; conditions: Binned Activity, HEK293 cells expressing NR1/NR2B, Ca2+ influx; binned NR2B NAM IC50
MEASUREMENT LABEL: IC50

The following compounds have reported results that may help.
COMPOUND	TGT	IC50
OC(CN1C[C@@H]2C[C@@](O)(c3ccccc3)C[C@@H]2C1)c1ccccc1 (mixture of isomers)	NR1/NR2B (Homo sapiens (Human), UniProt Q05586+Q13224)	> 10 µM
O=C(CN1C[C@@H]2C[C@@](O)(Cc3ccccc3)C[C@@H]2C1)c1cccc(-c2ccc(O)cc2)c1	NR1/NR2B (Homo sapiens (Human), UniProt Q05586+Q13224)	> 10 µM
O=C(Nc1ccc(Cl)c(C(F)(F)F)c1)N1C[C@@H]2C[C@@](O)(Cc3ccccc3)C[C@@H]2C1	NR1/NR2B (Homo sapiens (Human), UniProt Q05586+Q13224)	> 10 µM
Oc1ccc(C(O)CN2C[C@@H]3C[C@](F)(Cc4ccccc4)C[C@@H]3C2)cc1F (mixture of isomers)	NR1/NR2B (Homo sapiens (Human), UniProt Q05586+Q13224)	< 0.1 µM
OC(CN1C[C@@H]2C[C@@](O)(Cc3ccccc3)C[C@@H]2C1)c1ccc2[nH]nnc2c1 (mixture of isomers)	NR1/NR2B (Homo sapiens (Human), UniProt Q05586+Q13224)	0.1 to 1 µM
O=C(CN1C[C@@H]2C[C@@](O)(Cc3ccc(F)c(F)c3)C[C@@H]2C1)c1ccc(O)cc1	NR1/NR2B (Homo sapiens (Human), UniProt Q05586+Q13224)	< 0.1 µM

Request: Observed IC50 on NR1/NR2B (Homo sapiens (Human), UniProt Q05586+Q13224) for Cc1ccc(NC(=O)N2C[C@H]3C[C@@H](c4ccccc4)C[C@H]3C2)c(C)c1 , please.
Result: > 10 µM

Request: And the next one, O=C(CN1C[C@H]2C[C@@H](c3ccccc3)C[C@H]2C1)c1ccc(O)cc1 ?
Result: 0.1 to 1 µM

Request: Then this compound: O=C(CN1C[C@@H]2C[C@@](O)(Cc3ccc(F)c(F)c3)C[C@@H]2C1)c1ccc(O)cn1
Result: > 10 µM

Request: Here is the next compound: O=C(CN1C[C@@H]2C[C@](F)(Cc3ccccc3)C[C@@H]2C1)c1ccc(O)cc1
Result: 0.1 to 1 µM

Request: Another compound to check: Oc1ccc([C@@H](O)CN2C[C@@H]3C[C@@](O)(Cc4ccccc4)C[C@@H]3C2)cc1F
Result: < 0.1 µM

Request: Another compound to look at: COc1ccc(C(O)CN2C[C@@H]3C[C@@](O)(c4ccccc4)C[C@@H]3C2)cc1 (mixture of isomers)
Result: > 10 µM

---

pIC50 overview
molecular target: NR1/NR2B (Homo sapiens (Human), UniProt Q05586+Q13224); test: Cell assay: FDSS Ca2+ influx inhibition in HEK293 cells expressing NR1/NR2B; details: NR2B NAM IC50, HEK293 cells expressing NR1/NR2B, Ca2+ influx
Please report pIC50 as the negative decimal logarithm of the molar concentration, giving only the number.

Request: // query pIC50 value for entry Oc1ccc(C(O)CN2C[C@H]3C[C@H](Cc4ccccc4)C[C@H]3C2)cc1F (mixture of isomers) [Example 302]
Result: 7.70

Request: Record: Oc1ccc(C(O)CN2C[C@@H]3C[C@@](O)(Cc4cccs4)C[C@@H]3C2)cc1 (mixture of isomers) [Example 204]
Result: 7.90

Request: // repeat for Oc1ccc(C(O)CN2C[C@@H]3C[C@@](O)(CC4CCCCC4)C[C@@H]3C2)cc1 (mixture of isomers) [Example 209] and report
Result: 6.39

---

Listed here: items and their measured IC50.
biological target: NR1/NR2B (Homo sapiens (Human), UniProt Q13224); assay: Cell assay: FDSS Ca2+ influx inhibition in HEK293 cells expressing NR1/NR2B; settings: read-out: NR2B NAM IC50; HEK293 cells expressing NR1/NR2B, Ca2+ influx;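 also: Fluo-8 Ca2+ signal read on Hamamatsu FDSS 6000 after glutamate, glycine and Ca2+ challenge following 10 min compound preincubation, end/baseline fluorescence ratio compared with MK801 control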
Sequence (Q13224 27-1484, other chains not shown): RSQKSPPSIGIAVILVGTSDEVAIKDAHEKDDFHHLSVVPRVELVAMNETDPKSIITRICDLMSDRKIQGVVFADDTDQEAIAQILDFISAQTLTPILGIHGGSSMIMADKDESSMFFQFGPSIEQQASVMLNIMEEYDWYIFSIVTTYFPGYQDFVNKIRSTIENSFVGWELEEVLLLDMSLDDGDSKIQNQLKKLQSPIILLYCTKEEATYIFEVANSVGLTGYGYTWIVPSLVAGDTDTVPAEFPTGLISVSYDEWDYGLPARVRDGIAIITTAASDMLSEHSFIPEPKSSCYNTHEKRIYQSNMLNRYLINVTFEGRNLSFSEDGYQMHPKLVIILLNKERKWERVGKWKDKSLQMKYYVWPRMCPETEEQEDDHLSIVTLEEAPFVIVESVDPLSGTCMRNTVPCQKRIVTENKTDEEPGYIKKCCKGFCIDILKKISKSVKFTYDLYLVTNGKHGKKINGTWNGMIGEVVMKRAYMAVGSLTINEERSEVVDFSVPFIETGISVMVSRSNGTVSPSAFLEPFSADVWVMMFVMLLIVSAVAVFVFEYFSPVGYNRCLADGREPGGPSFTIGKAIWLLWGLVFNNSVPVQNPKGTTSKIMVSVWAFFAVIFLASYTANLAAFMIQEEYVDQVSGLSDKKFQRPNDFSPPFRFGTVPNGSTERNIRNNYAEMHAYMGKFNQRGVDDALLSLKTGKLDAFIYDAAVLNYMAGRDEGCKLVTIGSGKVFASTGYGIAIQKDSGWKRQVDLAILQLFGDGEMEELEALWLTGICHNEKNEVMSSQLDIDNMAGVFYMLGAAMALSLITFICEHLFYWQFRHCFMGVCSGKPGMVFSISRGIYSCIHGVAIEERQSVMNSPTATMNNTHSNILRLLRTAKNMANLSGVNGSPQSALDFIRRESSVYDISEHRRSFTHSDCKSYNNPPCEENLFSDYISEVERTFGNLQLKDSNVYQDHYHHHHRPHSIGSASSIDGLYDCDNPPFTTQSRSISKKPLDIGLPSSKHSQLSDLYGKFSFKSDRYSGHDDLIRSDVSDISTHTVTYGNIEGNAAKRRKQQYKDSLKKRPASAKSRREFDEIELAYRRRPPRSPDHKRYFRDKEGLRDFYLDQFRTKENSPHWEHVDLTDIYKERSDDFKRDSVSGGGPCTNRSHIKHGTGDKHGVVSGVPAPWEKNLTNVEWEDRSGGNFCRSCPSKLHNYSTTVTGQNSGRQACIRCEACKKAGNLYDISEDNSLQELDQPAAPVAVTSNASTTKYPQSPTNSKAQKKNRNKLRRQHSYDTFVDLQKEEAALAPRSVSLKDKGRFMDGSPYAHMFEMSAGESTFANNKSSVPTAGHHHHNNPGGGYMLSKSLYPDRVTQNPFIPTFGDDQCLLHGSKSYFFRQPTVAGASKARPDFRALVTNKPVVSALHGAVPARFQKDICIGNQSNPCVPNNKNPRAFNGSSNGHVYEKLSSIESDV
Write it as a number; the unit µM goes unstated.

Past entries and their recorded results:
MOLECULE	IC50 (µM)
O=C(CN1C[C@@H]2C[C@@](O)(Cc3ccccc3)C[C@@H]2C1)c1ccc(O)c(F)n1 [Example 190]	10
O=C(CN1C[C@H]2C[C@H](Cc3ccccc3)C[C@H]2C1)c1ccc(O)c(F)c1 [Example 308]	0.0522
COc1ccc(C(=O)CN2C[C@@H]3C[C@@](O)(Cc4ccccc4)C[C@@H]3C2)cn1 [Example 161]	10
O=C(Nc1cccc(Cl)c1)N1C[C@@H]2C[C@@](O)(Cc3ccccc3)C[C@@H]2C1 [Example 118]	10
OC(CN1C[C@@H]2CC(O)(Cc3ccccc3)C[C@@H]2C1)c1ccc(F)cc1 (mixture of isomers) [Example 289]	10

Request: Field request: IC50 | item: O=C(CN1C[C@@H]2C[C@@](O)(CC3CCCCC3)C[C@@H]2C1)c1ccc(O)cn1 [Example 206]
Result: 10

Request: How about this molecule: Oc1ccc([C@@H](O)CN2C[C@@H]3C[C@@](O)(Cc4ccc(F)cc4)C[C@@H]3C2)nc1 [Example 255]
Result: 0.024

Request: Can you handle Cc1ccccc1-c1cccc(C(=O)CN2C[C@@H]3C[C@@](O)(Cc4ccccc4)C[C@@H]3C2)c1 [Example 278] next?
Result: 10

Request: Cc1cccc(-c2ccc(C(=O)CN3C[C@@H]4C[C@@](O)(Cc5ccccc5)C[C@@H]4C3)cc2)c1 [Example 264]
Result: 10

Request: Same lookup for COc1cccc(C[C@]2(O)C[C@H]3CN(CC(=O)c4ccc(O)c(F)n4)C[C@H]3C2)c1 [Example 200] , please.
Result: 10

Request: Thanks! And O=C(CN1C[C@H]2C[C@@H](CCc3ccccc3)C[C@H]2C1)c1ccc(O)cc1 [Example 324] ?
Result: 0.215

Request: Try N#Cc1cccc(NC(=O)N2C[C@@H]3C[C@@](O)(c4ccccc4)C[C@@H]3C2)c1 [Example 26] next.
Result: 10

Request: How about this molecule: O=C(CN1C[C@@H]2C[C@@](O)(Cc3ccccc3)C[C@@H]2C1)c1ccc(O)cn1 [Example 140]
Result: 6.94

Request: Likewise for O=C(COc1ccc(C(=O)CN2C[C@@H]3C[C@@](O)(Cc4ccccc4)C[C@@H]3C2)cc1F)c1ccc(O)c(F)c1 [Example 172] ?
Result: 10

Request: Thanks! And O=C(CN1C[C@@H]2CC(O)(CCc3ccccc3)C[C@@H]2C1)c1ccc(-c2ccccc2)cc1 (some centres unmarked) [Example 269] ?
Result: 10

Request: Field entry: Oc1ccc([C@@H](O)CN2C[C@@H]3C[C@](O)(Cc4ccccc4)C[C@@H]3C2)cc1 [Example 2291]
Result: 0.332

Request: Input CC(C)(C)c1ccc([C@]2(O)C[C@H]3CN(C(=O)Nc4cccc(Cl)c4)C[C@H]3C2)cc1 [Example 56]
Result: 10
